solubility: recorded values
- procedure details: Solubility of the compound in PBS at pH 7.4 at upto 200 uM by HPLC-UV analysis
- Assay type: physicochemical
Write the value in µM as a bare number.

smiles entry	measurement
O=c1[nH]c(=O)n(C2CC2)c2nc(Cc3nc4ccccc4[nH]3)n(Cc3ccccc3)c12	167
CCn1c(=O)[nH]c(=O)c2c1nc(Cc1nc3ccccc3[nH]1)n2Cc1ccccc1	181
CCn1c(=O)[nH]c(=O)c2c1nc(Sc1nc3ccccc3[nH]1)n2Cc1ccccc1	5.3
CCn1c(=O)[nH]c(=O)c2c1nc(Cc1nc3cc4c(cc3[nH]1)OCO4)n2Cc1ccccc1	186
O=c1[nH]c(=O)n(C2CC2)c2nc(Cc3nc4ccc(OCCO)cc4[nH]3)n(Cc3ccccc3)c12	186

Query: Give recorded solubility. O=c1[nH]c(=O)n(C2CC2)c2nc(Cc3nc4ccc(O)cc4[nH]3)n(Cc3ccccc3)c12
Reply: 171

Query: Give recorded solubility. CCCn1c(=O)[nH]c(=O)c2c1nc(Sc1nc3ccccc3[nH]1)n2Cc1ccccc1
Reply: 11.8

Query: Give recorded solubility. O=c1[nH]c(=O)n(C2CC2)c2nc(Cc3nc4cc5c(cc4[nH]3)OCO5)n(Cc3ccccc3)c12
Reply: 22.9

----------
- procedure details: Solubility of the compound in simulated intestinal fluid at upto 200 uM by HPLC-UV analysis
- Format: physicochemical
measured quantity: solubility (µM)
Write the value in µM as a bare number.

Answered cases to consult:
smiles entry	measurement
O=c1[nH]c(=O)n(C2CC2)c2nc(Cc3nc4ccc(F)cc4[nH]3)n(Cc3ccccc3)c12	154
O=c1[nH]c(=O)n(C2CC2)c2nc(Cc3nc4ccc(O)cc4[nH]3)n(Cc3ccccc3)c12	185
N#Cc1ccc2nc(Cc3nc4c(c(=O)[nH]c(=O)n4C4CC4)n3Cc3ccccc3)[nH]c2c1	196

Query: Give recorded solubility. O=c1[nH]c(=O)n(C2CC2)c2nc(Cc3nc4ccccc4[nH]3)n(Cc3ccccc3)c12
Reply: 168

Query: Give recorded solubility. CCCn1c(=O)[nH]c(=O)c2c1nc(Cc1nc3cc(O)ccc3[nH]1)n2Cc1ccccc1
Reply: 159

Query: Give recorded solubility. Cn1c(=O)[nH]c(=O)c2c1nc(Sc1nc3cc(NC(=O)CC[C@H](N)C(=O)O)ccc3[nH]1)n2Cc1ccccc1
Reply: 116

Query: Give recorded solubility. CCn1c(=O)[nH]c(=O)c2c1nc(Cc1nc3cc4c(cc3[nH]1)OCO4)n2Cc1ccccc1
Reply: 166

Query: Give recorded solubility. COC(=O)c1ccc2nc(Cc3nc4c(c(=O)[nH]c(=O)n4C4CC4)n3Cc3ccccc3)[nH]c2c1
Reply: 195

----------
half-life: recorded values
- procedure details: Metabolic stability in human hepatocytes assessed as half life
- Assay type: ADME, cell-based, Hepatocyte

smiles entry	half-life
CCn1c(=O)[nH]c(=O)c2c1nc(Cc1nc3ccccc3[nH]1)n2Cc1ccccc1	0.2 h
CCn1c(=O)[nH]c(=O)c2c1nc(Sc1nc3ccccc3[nH]1)n2Cc1ccccc1	0.0833 h
O=c1[nH]c(=O)n(C2CC2)c2nc(Cc3nc4ccc(O)cc4[nH]3)n(Cc3ccccc3)c12	> 1 h
O=c1[nH]c(=O)n(C2CC2)c2nc(Cc3nc4cc5c(cc4[nH]3)OCO5)n(Cc3ccccc3)c12	> 1 h
O=c1[nH]c(=O)n(C2CC2)c2nc(Cc3nc4ccc(OCCO)cc4[nH]3)n(Cc3ccccc3)c12	> 1 h

Query: Give recorded half-life. Cn1c(=O)[nH]c(=O)c2c1nc(Sc1nc3cc(NC(=O)CC[C@H](N)C(=O)O)ccc3[nH]1)n2Cc1ccccc1
Reply: > 1 h

Query: Give recorded half-life. CCn1c(=O)[nH]c(=O)c2c1nc(Cc1nc3cc4c(cc3[nH]1)OCO4)n2Cc1ccccc1
Reply: > 1 h

Query: Give recorded half-life. N#Cc1ccc2nc(Cc3nc4c(c(=O)[nH]c(=O)n4C4CC4)n3Cc3ccccc3)[nH]c2c1
Reply: > 1 h

----------
- procedure details: Metabolic stability in rat hepatocytes assessed as half life
- Format: ADME, cell-based, Hepatocyte
measured quantity: half-life

Answered cases to consult:
smiles entry	measurement
COC(=O)c1ccc2nc(Cc3nc4c(c(=O)[nH]c(=O)n4C4CC4)n3Cc3ccccc3)[nH]c2c1	> 1 h
CCCn1c(=O)[nH]c(=O)c2c1nc(Cc1nc3cc(O)ccc3[nH]1)n2Cc1ccccc1	> 1 h
COc1ccc2nc(Cc3nc4c(c(=O)[nH]c(=O)n4C4CC4)n3Cc3ccccc3)[nH]c2c1	> 1 h

Query: Give recorded half-life. CCn1c(=O)[nH]c(=O)c2c1nc(Cc1nc3cc4c(cc3[nH]1)OCO4)n2Cc1ccccc1
Reply: 1 h

Query: Give recorded half-life. O=c1[nH]c(=O)n(C2CC2)c2nc(Cc3nc4cc5c(cc4[nH]3)OCO5)n(Cc3ccccc3)c12
Reply: > 1 h

----------
- procedure details: Metabolic stability in human hepatocytes assessed as half life
- Assay type: ADME, cell-based, Hepatocyte
half-life: recorded values
Write the value in min as a bare number.

Answered cases to consult:
smiles entry	half-life / min
O=c1[nH]c(=O)n(C2CC2)c2nc(Cc3nc4ccc(F)cc4[nH]3)n(Cc3ccccc3)c12	32
O=c1[nH]c(=O)n(C2CC2)c2nc(Cc3nc4ccccc4[nH]3)n(Cc3ccccc3)c12	6
COc1ccc2nc(Cc3nc4c(c(=O)[nH]c(=O)n4C4CC4)n3Cc3ccccc3)[nH]c2c1	6

# next compound below
Query: Give recorded half-life. CCCn1c(=O)[nH]c(=O)c2c1nc(Sc1nc3ccccc3[nH]1)n2Cc1ccccc1
Reply: 4

----------
solubility: recorded values
- procedure details: Solubility of the compound in PBS at pH 7.4 at upto 200 uM by HPLC-UV analysis
- Format: physicochemical
Write the value in µM as a bare number.

Answered cases to consult:
smiles entry	solubility / µM
COC(=O)c1ccc2nc(Cc3nc4c(c(=O)[nH]c(=O)n4C4CC4)n3Cc3ccccc3)[nH]c2c1	197
COc1ccc2nc(Cc3nc4c(c(=O)[nH]c(=O)n4C4CC4)n3Cc3ccccc3)[nH]c2c1	197
Cn1c(=O)[nH]c(=O)c2c1nc(Sc1nc3cc(NC(=O)CC[C@H](N)C(=O)O)ccc3[nH]1)n2Cc1ccccc1	172

# next compound below
Query: Give recorded solubility. N#Cc1ccc2nc(Cc3nc4c(c(=O)[nH]c(=O)n4C4CC4)n3Cc3ccccc3)[nH]c2c1
Reply: 154

----------
half-life: recorded values
- procedure details: Metabolic stability in rat hepatocytes assessed as half life
- Format: ADME, cell-based, Hepatocyte

smiles entry	half-life
Cn1c(=O)[nH]c(=O)c2c1nc(Sc1nc3cc(NC(=O)CC[C@H](N)C(=O)O)ccc3[nH]1)n2Cc1ccccc1	> 60 min
CCCn1c(=O)[nH]c(=O)c2c1nc(Sc1nc3ccccc3[nH]1)n2Cc1ccccc1	5 min
O=c1[nH]c(=O)n(C2CC2)c2nc(Cc3nc4ccccc4[nH]3)n(Cc3ccccc3)c12	35 min

Query: Give recorded half-life. O=c1[nH]c(=O)n(C2CC2)c2nc(Cc3nc4ccc(O)cc4[nH]3)n(Cc3ccccc3)c12
Reply: > 60 min

----------
- procedure details: Solubility of the compound in simulated gastric fluid at upto 200 uM by HPLC-UV analysis
- Assay type: physicochemical
measured quantity: solubility (µM)
Write the value in µM as a bare number.

Answered cases to consult:
smiles entry	solubility, µM
O=c1[nH]c(=O)n(C2CC2)c2nc(Cc3nc4ccc(F)cc4[nH]3)n(Cc3ccccc3)c12	198
O=c1[nH]c(=O)n(C2CC2)c2nc(Cc3nc4ccc(O)cc4[nH]3)n(Cc3ccccc3)c12	165
N#Cc1ccc2nc(Cc3nc4c(c(=O)[nH]c(=O)n4C4CC4)n3Cc3ccccc3)[nH]c2c1	196
O=c1[nH]c(=O)n(C2CC2)c2nc(Cc3nc4ccccc4[nH]3)n(Cc3ccccc3)c12	180
CCCn1c(=O)[nH]c(=O)c2c1nc(Cc1nc3cc(O)ccc3[nH]1)n2Cc1ccccc1	189
CCn1c(=O)[nH]c(=O)c2c1nc(Sc1nc3ccccc3[nH]1)n2Cc1ccccc1	195
O=c1[nH]c(=O)n(C2CC2)c2nc(Cc3nc4ccc(OCCO)cc4[nH]3)n(Cc3ccccc3)c12	186
CCCn1c(=O)[nH]c(=O)c2c1nc(Sc1nc3ccccc3[nH]1)n2Cc1ccccc1	173
CCn1c(=O)[nH]c(=O)c2c1nc(Cc1nc3cc4c(cc3[nH]1)OCO4)n2Cc1ccccc1	191
CCn1c(=O)[nH]c(=O)c2c1nc(Cc1nc3ccccc3[nH]1)n2Cc1ccccc1	162

Query: Give recorded solubility. O=c1[nH]c(=O)n(C2CC2)c2nc(Cc3nc4cc5c(cc4[nH]3)OCO5)n(Cc3ccccc3)c12
Reply: 193

Query: Give recorded solubility. COc1ccc2nc(Cc3nc4c(c(=O)[nH]c(=O)n4C4CC4)n3Cc3ccccc3)[nH]c2c1
Reply: 162

Query: Give recorded solubility. COC(=O)c1ccc2nc(Cc3nc4c(c(=O)[nH]c(=O)n4C4CC4)n3Cc3ccccc3)[nH]c2c1
Reply: 198

Hello, the source for this data is ChEMBL document CHEMBL5137079, in case you need it.
